Test system: CRL-7250
Assay: Cytotoxic Profiling of Annotated Libraries Using Quantitative High-Throughput Screening (AID 1296008); note: nearly all actives have a fitted effect of over 60% in size; note: potency is the fitted concentration of half-maximal effect
Settings: Five cell lines viability, CellTiter-Glo ATP luminescence, 48-72 h
Description: Cell-based phenotypic screening is a commonly used approach to discover biological pathways, novel drug targets, chemical probes and high-quality hit-to-lead molecules. […] A pintool (Kalypsys) was used to transfer 23 nL of compound solution to the 1536-well assay plates. […] Plates were left at room temperature for 10 min before imaging the ATP-coupled luminescence using a ViewLux microplate imager (PerkinElmer, Waltham, MA).
Records with an inconclusive call do not appear. Calls of active or inactive are those of the source. Calls come from the whole dose curve; as a rule, active = well fitted inhibition curve with a large enough effect; inconclusive = small, poorly fitted or top-dose-only effect; inactive = flat fitted curve, though single readings scatter.
property_name: Potency

[[record]]
compound = "CC(C)[C@H](C(=O)Nc1ccc(C(=O)NO)cc1)c1ccccc1"
property_name = "Potency"
reported = "4.18 µM (active)"

[[record]]
compound = "CCN1CCN(CC(=O)Nc2ccc(-c3cccc4c(=O)cc(N5CCOCC5)oc34)c3sc4ccccc4c23)CC1"
property_name = "Potency"
reported = "2.35 µM (active)"

[[record]]
compound = "CN1CCC(CNc2ccc3ncc(-c4cccc(OC(F)(F)F)c4)n3n2)CC1"
property_name = "Potency"
reported = "4.69 µM (active)"

[[record]]
compound = "CCOc1ccccc1OCCNC(C)Cc1ccc(OC)c(S(N)(=O)=O)c1 (centres undefined)"
property_name = "Potency"
reported = "inactive"

[[record]]
compound = "CN(C)CCCN=c1c2ccccc2n(C)c2[nH]c(=O)n(C)c(=O)c12"
property_name = "Potency"
reported = "11.8 µM (active)"

[[record]]
compound = "Nc1cc(C(F)(F)F)c(-c2cc(N3CCOCC3)nc(N3CCOCC3)n2)cn1"
property_name = "Potency"
reported = "2.06 µM (active)"

[[record]]
compound = "Cc1cc(Nc2cc(N3CCN(C)CC3)nc(C=Cc3ccccc3)n2)n[nH]1"
property_name = "Potency"
reported = "5.4 µM (active)"

[[record]]
compound = "O=C(Nc1cn[nH]c1-c1nc2ccc(CN3CCOCC3)cc2[nH]1)NC1CC1"
property_name = "Potency"
reported = "1.3 µM (active)"

[[record]]
compound = "O=C(O)c1ccc2c(c1)nc(Nc1cccc(Cl)c1)c1ccncc12"
property_name = "Potency"
reported = "14.6 µM (active)"

[[record]]
compound = "CN[C@H]1CCc2cc(OC)c(OC)c(OC)c2-c2ccc(OC)c(=O)cc21"
property_name = "Potency"
reported = "0.0148 µM (active)"

[[record]]
compound = "CC(C)=CCCC(C)=CCCC(C)=CCSc1ccccc1C(=O)O"
property_name = "Potency"
reported = "0.148 µM (active)"

[[record]]
compound = "CCS(=O)(=O)c1cccc(-c2cc(C(=O)NC3CCN(C)CC3)c(C)c3[nH]c4ncc(C)cc4c23)c1"
property_name = "Potency"
reported = "1.28 µM (active)"

[[record]]
compound = "O=C(O)[C@H](Cc1c[nH]c2ccccc12)N1C(=O)c2ccccc2C1=O"
property_name = "Potency"
reported = "inactive"

[[record]]
compound = "O=C(NCCCNc1nc(Nc2cccc(NC(=O)N3CCCC3)c2)ncc1I)c1cccs1"
property_name = "Potency"
reported = "5.9 µM (active)"

[[record]]
compound = "CC(C)c1nn(-c2c(Cl)cccc2Cl)c2nc(Cc3ccc(OCCO)cc3)[nH]c(=O)c12"
property_name = "Potency"
reported = "0.0291 µM (active)"

[[record]]
compound = "CN(C1CCc2c(c3ccccc3n2CC(=O)O)C1)S(=O)(=O)c1ccc(F)cc1 (centres undefined)"
property_name = "Potency"
reported = "inactive"

[[record]]
compound = "CC(C)c1ccc(Cn2ccc3c4c(N)nc(NC5CC5)nc4ccc32)cc1"
property_name = "Potency"
reported = "3.32 µM (active)"

[[record]]
compound = "CC(C)(C)c1cnc(CSc2cnc(NC(=O)C3CCNCC3)s2)o1"
property_name = "Potency"
reported = "0.132 µM (active)"

[[record]]
compound = "CC1COC2(CCN(c3nc(=O)c4cc(C(F)(F)F)cc([N+](=O)[O-])c4s3)CC2)O1 (centres undefined)"
property_name = "Potency"
reported = "inactive"

[[record]]
compound = "NC1(Cc2ccc(Cl)cc2)CCN(c2ncnc3[nH]ccc23)CC1"
property_name = "Potency"
reported = "13.2 µM (active)"

[[record]]
compound = "CC(C)(C)OC(=O)Nc1ccc(-c2cc(C(=O)NCCCCCCC(=O)NO)no2)cc1"
property_name = "Potency"
reported = "16.6 µM (active)"

[[record]]
compound = "Cc1[nH]c2ccccc2c1CCNCc1ccc(C=CC(=O)NO)cc1"
property_name = "Potency"
reported = "1.05 µM (active)"

[[record]]
compound = "Cc1c(C)n(Cc2ccc(-c3ccccc3C(=O)O)cc2)c2ccc(C(=O)N[C@@H](C)c3ccc([N+](=O)[O-])cc3)cc12"
property_name = "Potency"
reported = "inactive"

[[record]]
compound = "CCN(CC)CCNC(=O)c1ccc2nc(-c3ccccc3)c(-c3ccc(CN4CCC(n5c(=O)[nH]c6ccccc65)CC4)cc3)nc2c1"
property_name = "Potency"
reported = "9.35 µM (active)"

[[record]]
compound = "C#Cc1cccc(Nc2ncnc3cc(OC)c(OCCCCCCC(=O)NO)cc23)c1"
property_name = "Potency"
reported = "4.69 µM (active)"

[[record]]
compound = "Cc1ccc(CN2CCNCC2)cc1NC(=O)CNc1ccc(F)c(F)c1"
property_name = "Potency"
reported = "inactive"

[[record]]
compound = "CCN(CC)CCCCNc1ncc2cc(-c3cc(OC)cc(OC)c3)c(NC(=O)NC(C)(C)C)nc2n1"
property_name = "Potency"
reported = "0.264 µM (active)"

[[record]]
compound = "Cc1ccc(C(N)=O)cc1Nc1nccc(-c2cn(C(C)C)c3cnccc23)n1"
property_name = "Potency"
reported = "11.6 µM (active)"

[[record]]
compound = "CNC(=O)c1ccc(-c2cnc3ncc(Cc4ccc5ncccc5c4)n3n2)cc1F"
property_name = "Potency"
reported = "inactive"

[[record]]
compound = "CCn1cc(-c2ccnc3[nH]c(-c4cccc(CN(C)C)c4)cc23)c(-c2ccc(NC(=O)N(C)C)cc2)n1"
property_name = "Potency"
reported = "14.8 µM (active)"

[[record]]
compound = "CC(C)c1cc(C(=O)N2Cc3ccc(CN4CCN(C)CC4)cc3C2)c(O)cc1O"
property_name = "Potency"
reported = "0.935 µM (active)"

[[record]]
compound = "O=C(C=Cc1cccnc1)NCCCCC1CCN(C(=O)c2ccccc2)CC1"
property_name = "Potency"
reported = "0.0743 µM (active)"

[[record]]
compound = "CS(=O)(=O)c1ccc(-c2cnc(N)c(C(=O)Nc3ccccc3)n2)cc1"
property_name = "Potency"
reported = "inactive"

[[record]]
compound = "COc1ccc2c(OCc3nnc4ccc(-c5ccccc5)nn34)ccnc2c1"
property_name = "Potency"
reported = "inactive"

[[record]]
compound = "COc1cc(=C2C=c3ccccc3=N2)[nH]c1=Cc1[nH]c(C)cc1C"
property_name = "Potency"
reported = "11.8 µM (active)"

[[record]]
compound = "CNc1nccc(-c2cccnc2Oc2cc(C(=O)Nc3cccc(C(F)(F)F)c3)ccc2C)n1"
property_name = "Potency"
reported = "7.31 µM (active)"

[[record]]
compound = "CC1=C(CO)C(=O)O[C@@H]([C@@H](C)[C@H]2CC[C@H]3[C@@H]4C[C@H]5O[C@]56[C@@H](O)C=CC(=O)[C@]6(C)[C@@H]4CC[C@]23C)C1"
property_name = "Potency"
reported = "1.48 µM (active)"

[[record]]
compound = "O=c1[nH]c(=O)n(C2CCCO2)cc1F (centres undefined)"
property_name = "Potency"
reported = "inactive"

[[record]]
compound = "Cc1cn2c(-c3cn[nH]c3)cnc2c(Nc2ccc(C(=O)N3CCNCC3)cc2F)n1"
property_name = "Potency"
reported = "6.51 µM (active)"


This collection of values is drawn from PubChem BioAssay (NCATS).
